molecular target: Vasopressin V2 receptor (Homo sapiens, UniProt P30518); assay: Agonist activity at recombinant human V2 receptor expressed in HEK293 cells measured after 5 hrs by cAMP response element driven luciferase reporter gene assay
Sequence (P30518 whole entry): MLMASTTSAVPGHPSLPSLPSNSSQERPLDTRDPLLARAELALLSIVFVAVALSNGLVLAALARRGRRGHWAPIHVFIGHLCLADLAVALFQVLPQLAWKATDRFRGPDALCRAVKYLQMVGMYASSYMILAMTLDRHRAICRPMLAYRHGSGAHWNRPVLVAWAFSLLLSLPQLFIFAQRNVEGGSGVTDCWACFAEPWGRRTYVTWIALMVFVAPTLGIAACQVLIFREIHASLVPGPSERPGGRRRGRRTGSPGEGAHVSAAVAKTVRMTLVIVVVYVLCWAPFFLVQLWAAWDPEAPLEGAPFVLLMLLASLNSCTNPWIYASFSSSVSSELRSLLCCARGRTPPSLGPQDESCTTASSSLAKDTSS
pEC50: −log10 of the molar value. Bridge positions count the residues as written; N and C are the ends. Square brackets hold non-standard residues; d marks the D form. Peptide text beside a SMILES is read from it. Mpa = O=C(O)CCS
Kindly return y if reported pEC50 is no lower than 10; return n if it is lower.

Form field: pEC50 at least 10? Entry: CC(C)[C@@H]1NC(=O)[C@H](Cc2ccccc2)NC(=O)[C@H](Cc2ccc(O)cc2)NC(=O)CCSSC[C@@H](C(=O)N2CCC[C@H]2C(=O)N[C@H](CCCNC(=N)N)C(=O)NCC(N)=O)NC(=O)[C@H](CC(N)=O)NC1=O ([Mpa]YFVNCP[dR]G-NH2; disulfide 1-6)
y

And what about the molecule CCNC(=O)[C@@H](CCCNC(=N)N)NC(=O)[C@@H]1C[C@@H](O)CN1C(=O)[C@@H]1CSCCCC(=O)N[C@@H](Cc2ccc(Cl)cc2)C(=O)N[C@@H](Cc2ccccc2)C(=O)N[C@@H](C(C)C)C(=O)N[C@@H](CC(N)=O)C(=O)N1 ?
n

What about CC(C)CNC(=O)[C@@H](CCCNC(=N)N)NC(=O)[C@@H]1C[C@@H](O)CN1C(=O)[C@@H]1CCSCCC(=O)N[C@@H](Cc2ccc(Cl)cc2)C(=O)N[C@@H](Cc2cccs2)C(=O)N[C@@H](C(C)C)C(=O)N[C@@H](CC(N)=O)C(=O)N1 ?
n
